Could you please report measured pIC50 for the items listed next?
target: GSK3B (Homo sapiens); test: NanoBRET cellular target engagement assay, Nanoluc-GSK3B in HEK293 cells; type: cell-based; parameters: expressed in transfected cells; conditions: NanoBRET GSK3β IC50, HEK293 cells, tracer K-8, 2 hours, 37° C
Sequence (P49841 whole entry): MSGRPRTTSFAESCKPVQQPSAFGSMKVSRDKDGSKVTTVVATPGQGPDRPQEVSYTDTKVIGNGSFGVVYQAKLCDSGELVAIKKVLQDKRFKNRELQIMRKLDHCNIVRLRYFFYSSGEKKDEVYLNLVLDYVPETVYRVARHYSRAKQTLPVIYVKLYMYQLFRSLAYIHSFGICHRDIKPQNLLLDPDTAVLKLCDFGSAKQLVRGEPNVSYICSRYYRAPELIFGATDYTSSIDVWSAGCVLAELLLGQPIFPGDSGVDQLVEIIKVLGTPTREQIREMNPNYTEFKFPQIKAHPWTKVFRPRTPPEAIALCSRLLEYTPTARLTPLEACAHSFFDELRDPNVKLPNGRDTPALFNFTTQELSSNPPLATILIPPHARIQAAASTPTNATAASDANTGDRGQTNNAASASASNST
Where a name gives a salt, the structure may show the parent alone.
Give bare numbers, as −log10 of the molar value.

// solved cases for pIC50 follow
compound	pIC50
Cc1cc(C)c(-n2cnc(N)c(C(=O)Nc3cncc(C(C)N)c3)c2=O)c(C)c1 (single isomer, unassigned)	6.45
CCCOc1cc(C)c(-n2cnc(N)c(C(=O)Nc3cncc([C@H]4CCCCN4)c3)c2=O)c(C)c1	6.79
CCNCc1cncc(NC(=O)c2c(N)ncn(-c3c(Cl)cc(C(=O)OCC)cc3Cl)c2=O)c1	6.93
CN[C@H](C)c1cccc(NC(=O)c2c(N)ncn(-c3c(C)cc(OC)cc3Cl)c2=O)c1 (atropisomer, axis not shown)	6.48

Quick request: pIC50 for each listed item, please.
1. Cc1cc(C(F)F)cc(C)c1-n1cnc(N)c(C(=O)Nc2cncc([C@H]3CCCCN3)c2)c1=O
2. CNCc1cncc(NC(=O)c2c(N)ncn(-c3c(C)cc(COC)cc3C)c2=O)c1
3. Nc1ncn(-c2c(Cl)cc(OC3CC3)cc2Cl)c(=O)c1C(=O)Nc1cncc([C@@H]2CCCN2)c1
4. CCOc1cc(Cl)c(-n2cnc(N)c(C(=O)Nc3cnnc(C(N)=O)c3)c2=O)c(Cl)c1
5. COCc1cc(C)c(-n2cnc(N)c(C(=O)Nc3cncc([C@H]4CCCCN4)c3)c2=S)c(C)c1 [Example 163, trifluoroacetate]
6. Nc1ncn(-c2c(Cl)cccc2Cl)c(=O)c1C(=O)Nc1cccc([C@H]2CC[C@H](CO)N2)c1 (single isomer, unassigned)
7. COc1cc(Cl)c(-n2cnc(N)c(C(=O)Nc3cncc([C@]4(N)CCCOC4)c3)c2=O)c(Cl)c1 (single isomer, unassigned) [Example 187]
8. COc1cc(Cl)c(-n2cnc(N)c(C(=O)Nc3cncc(C4COCCN4)c3)c2=O)c(Cl)c1 (single isomer, unassigned)

**A:**
1. 6.92
2. 6.25
3. 6.48
4. 6.16
5. 6.69
6. 6.52
7. 6.38
8. 6.28

Quick request: pIC50 for each listed item, please.
1. Cc1cc(OC(F)(F)F)cc(C)c1-n1cnc(N)c(C(=O)Nc2cncc([C@H]3CCCCN3)c2)c1=O
2. COCc1cc(C)c(-n2cnc(N)c(C(=O)Nc3cncc([C@H]4CCCCN4)c3)c2=O)c(C)c1
3. CNC(C)c1cncc(NC(=O)c2c(N)ncn(-c3c(Cl)cc(Cl)cc3Cl)c2=O)c1 (single isomer, unassigned) [Example 13]
4. COCc1cc(Cl)c(-n2cnc(N)c(C(=O)Nc3cncc(C(C)(C)N)c3)c2=O)c(Cl)c1
5. COc1cc(C)c(-n2cnc(N)c(C(=O)Nc3cncc([C@H]4CCCCN4)c3)c2=O)c(C)c1
6. CCc1cc(C)c(-n2cnc(N)c(C(=O)Nc3cncc([C@@H](C)N)c3)c2=O)c(C)c1 (single isomer, unassigned)
7. COc1cc(Cl)c(-n2cnc(N)c(C(=O)Nc3cncc(C4(N)CC4)c3)c2=O)c(Cl)c1

**A:**
1: 6.48; 2: 6.87; 3: 6.30; 4: 6.93; 5: 6.69; 6: 6.40; 7: 6.31
